The measured values listed here are drawn from paper PMC5591277.

Molecular target: T1, Lsm2-8 complex (Saccharomyces cerevisiae, UniProt P38203;P57743;P40070;P40089;Q06406;P53905;P47093 …)
T1 sequence 1: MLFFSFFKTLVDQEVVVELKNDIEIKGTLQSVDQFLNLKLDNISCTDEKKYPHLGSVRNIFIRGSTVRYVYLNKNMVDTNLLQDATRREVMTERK
T1 sequence 2: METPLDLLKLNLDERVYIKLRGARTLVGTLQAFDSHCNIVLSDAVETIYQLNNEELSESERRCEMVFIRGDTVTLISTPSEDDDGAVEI
T1 sequence 3: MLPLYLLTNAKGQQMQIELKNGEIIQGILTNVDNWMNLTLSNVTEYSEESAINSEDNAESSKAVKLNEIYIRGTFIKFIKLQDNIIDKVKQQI
T1 sequence 4: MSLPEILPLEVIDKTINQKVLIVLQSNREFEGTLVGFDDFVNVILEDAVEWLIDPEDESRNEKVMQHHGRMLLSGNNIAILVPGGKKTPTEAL
T1 sequence 5: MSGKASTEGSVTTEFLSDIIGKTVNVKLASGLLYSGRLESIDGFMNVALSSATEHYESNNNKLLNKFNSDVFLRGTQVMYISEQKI
T1 sequence 6: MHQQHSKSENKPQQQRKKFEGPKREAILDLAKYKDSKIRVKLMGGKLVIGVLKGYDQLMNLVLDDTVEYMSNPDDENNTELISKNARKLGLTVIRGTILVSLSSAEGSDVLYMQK
T1 sequence 7: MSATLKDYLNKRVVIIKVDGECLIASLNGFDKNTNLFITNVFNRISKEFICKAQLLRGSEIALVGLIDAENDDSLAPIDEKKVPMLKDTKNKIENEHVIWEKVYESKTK
Assay: fluorescence polarization; Hill 1.6; EMSA: 5 nM Cy3-U6, 100 mM KCl, 20% sucrose, 20 mM bis-tris/10 mM HCl, 1 mM EDTA, 1 mM TCEP, 0.01% Triton X-100, 0.1 mg/mL tRNA, 0.01 mg/mL heparin, 0.1 mg/mL BSA, room temp 20 min (gel 4 C); FP: 0.25-1 nM FAM-RNA, 100 mM NaCl, 20 mM bis-tris/10 mM HCl, 1 mM TCEP, 5% glycerol, 1 mM EDTA, yeast tRNA, BSA
Conditions: protein: recombinant; tags: His on Lsm8 and GST on Lsm6, removed by TEV; copies: 1;1;1;1;1;1;1; label: 5' 6-FAM
measure name: pKd
Formally, pKd is defined as -log10 of the concentration c, with c in mol/L.

Determine from records and report pKd for AGAGAUUUAUUUCGUUUU (ssRNA, 2',3'-cis-diol end) [U6 95-112 3'OH]
7.07
